Attribution: patent US20260124191A1

- Test system: human breast cancer cells MDA-MB-231
- TEST METHOD NOTES: In vitro anti-tumor activity, MTT method
- Assay type: cell-based
- RUN PARAMETERS: MDA-MB-231, MTT, 96-hour treatment, read-out: Antiproliferative Activity (IC50 ± SD, μM) MDA-MB-231
READOUT LABEL: IC50 (µM)

O=C(CCCCCCN1C(=O)C/C(=C\c2ccc3ccccc3c2)C1=O)NO | 0.98

(a) O=C(CCCCCCN1C(=O)C/C(=C\c2cccc(Cl)c2)C1=O)NO
(b) COc1ccccc1/C=C1\CC(=O)N(CCCCCCC(=O)NO)C1=O
(c) O=C(CCCCCCN1C(=O)C/C(=C\c2ccccc2Cl)C1=O)NO
(d) O=C(CCCCCCN1C(=O)C/C(=C\c2ccccc2)C1=O)NO
In: Please list the entries, largest IC50 first. Please express your ranking as an ordered list of the labels.
Out: a, c, d, b

====

- Test system: human prostate cancer cells DU145
- TEST METHOD NOTES: In vitro anti-tumor activity, MTT method
- Type: cell-based
- RUN PARAMETERS: 96-hour treatment
READOUT LABEL: IC50 (nM)
Dear colleague, please return just the value in nM, with no unit written.

In: State its IC50 on human prostate cancer cells DU145: `Cc1ccc(/C=C2\CC(=O)N(CCCCCCC(=O)NO)C2=O)cc1`
Out: 310

====

- System: human breast cancer cells MCF7
- TEST METHOD NOTES: In vitro anti-tumor activity, MTT method
- Assay type: cell-based
- RUN PARAMETERS: Homo sapiens, MCF7, 96 h, MCF-7, MTT, 96-hour treatment
pIC50: −log10 of the molar value.
READOUT LABEL: pIC50

In the examples that follow, each entry is paired with its recorded pIC50.
O=C(CCCCCCN1C(=O)C/C(=C\c2cccc(Cl)c2)C1=O)NO | 5.98
O=C(CCCCCCN1C(=O)C/C(=C\c2ccc(Cl)cc2)C1=O)NO | 6.16
O=C(CCCCCCN1C(=O)C/C(=C\c2ccccc2Cl)C1=O)NO | 6.24
COc1ccc(/C=C2\CC(=O)N(CCCCCCC(=O)NO)C2=O)cc1 | 5.99
O=C(CCCCCN1C(=O)C/C(=C\c2ccccc2)C1=O)NO | 5.59
COc1cc(/C=C2\CC(=O)N(CCCCCCC(=O)NO)C2=O)cc(OC)c1O | 5.73

(I) COc1ccc(Br)cc1/C=C1\CC(=O)N(CCCCCCC(=O)NO)C1=O
(II) O=C(CCCCCCN1C(=O)C/C(=C\c2ccccn2)C1=O)NO
(III) O=C(NO)c1ccc(CN2C(=O)C/C(=C\c3ccccc3)C2=O)cc1
(IV) O=C(CCCCCCCN1C(=O)C/C(=C\c2ccccc2)C1=O)NO
In: Please list the entries, largest pIC50 first. Please express your ranking as an ordered list of the labels.
Out: I, II, IV, III

(1) O=C(CCCCCCN1C(=O)C/C(=C\c2cccs2)C1=O)NO
(2) O=C(CCCCCCN1C(=O)C/C(=C\c2ccc(C(F)(F)F)cc2)C1=O)NO
In: In terms of reported pIC50, does 1 or 2 have the smaller number? Selection: enter the item's label.
Out: 2

====

- Test system: human non-small cell lung cancer cell line A549
- TEST METHOD NOTES: In vitro anti-tumor activity, MTT method
- Assay type: cell-based
- RUN PARAMETERS: 96-hour treatment
READOUT LABEL: IC50

In: State the recorded IC50 for this entry: `Nc1cc(F)ccc1NC(=O)CCCN1C(=O)C/C(=C\c2ccccc2)C1=O`
Out: > 20 µM
